Hey, just so you know, these numbers are from PubChem BioAssay (NCI).

# Test system: CAKI-1 renal
# Assay Remarks: NCI-60 one-dose screen, 48 h (100 = growth as untreated, 0 = no growth, -100 = all killed)
# Recorded Conditions: 10 µM unless noted
This is part of a sample that, as a whole, favours compounds with a hit. Of some 83,000 tested, about 20% had one in any assay. The source made the active and inactive calls. The calls were made as follows: active = growth percent below 10; inactive = the rest.
Readout Name: growth

Examples with their reported growth follow.
CCCCNC1=C(OCC)C(=O)c2ccccc2C1=O | 110% (inactive)
CCCCCCCCn1ccc2cc(NC(=O)Cn3cc(CN4CCC(C)CC4)nn3)ccc21 | 11.3% (inactive)

(Q) # return recorded growth for entry COc1cc(OC)cc(C2C(C#N)=C(N)Oc3c2ccc2ccc(O)cc32)c1 (stereo unspecified)
(A) 21.1% (inactive)

(Q) # return recorded growth for entry O=C(O)c1cn(C2CC2)c2cc(N3CCN(C(=O)N/N=C/c4ccccc4)CC3)c(F)cc2c1=O
(A) 93.3% (inactive)
